The measured values listed here are drawn from ChEMBL document CHEMBL5120837.

# assayRemarks: Displacement of [3H]ifenprodil from recombinant human GluN1A/GluN2B expressed in mouse L-M(TK-) cell membranes after 120 mins by microbeta scintillation counting method
# Set-up: species or system Membrane
outcomeMeasure: Ki
The reply must contain the numeric value and, after it, the unit.

Inquiry: Look up Ki: O[C@@H](CN1[C@@H]2CC[C@H]1C[C@H](Cc1ccc(F)cc1)C2)c1ccccc1
Reply text: 0.017 µM

Inquiry: GET /values?readout=Ki&item= O[C@@H](CN1[C@@H]2CC[C@H]1C/C(=C/c1ccc(Cl)cc1)C2)c1ccccc1
Reply text: 0.013 µM

Inquiry: Any idea what Ki was measured for O[C@H](CN1[C@@H]2CC[C@H]1C/C(=C/c1ccc(F)cc1)C2)c1ccccc1 ?
Reply text: 0.0093 µM

Inquiry: Any idea what Ki was measured for O[C@H](CN1[C@@H]2CC[C@H]1C[C@@H](Cc1ccccc1)C2)c1ccccc1 ?
Reply text: 0.015 µM

====

# studySystem: Sigma non-opioid intracellular receptor 1 (Cavia porcellus)
# Sequence (Q60492 whole entry): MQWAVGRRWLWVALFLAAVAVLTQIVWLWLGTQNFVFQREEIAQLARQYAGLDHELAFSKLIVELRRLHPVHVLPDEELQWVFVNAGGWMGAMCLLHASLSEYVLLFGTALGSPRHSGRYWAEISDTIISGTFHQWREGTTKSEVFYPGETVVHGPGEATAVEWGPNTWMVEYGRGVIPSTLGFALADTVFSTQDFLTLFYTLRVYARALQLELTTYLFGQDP
# assayRemarks: Displacement of [3H]-(+)-pentazocine from sigma1 receptor in guinea pig brain cortex membranes measured after 120 mins by scintillation counting method
Label key: true means Ki under 1 nM; false means Ki of 1 nM or more.

Inquiry: Just wondering, is Ki of O[C@@H](CN1[C@@H]2CC[C@H]1C/C(=C/c1ccccc1)C2)c1ccccc1 below 1 nM?
Reply text: false

Inquiry: Does the reported Ki of the following compound sit strictly below 1 nM? O[C@H](CN1[C@@H]2CC[C@H]1C[C@H](Cc1ccccc1)C2)c1ccccc1 (mixture of isomers)
Reply text: false

Inquiry: Item O[C@@H](CN1[C@@H]2CC[C@H]1C[C@H](Cc1ccc(F)cc1)C2)c1ccc(F)cc1 : Ki beneath 1 nM, strictly?
Reply text: false

Inquiry: Say whether its Ki is strictly beneath 1 nM. Entry: O[C@@H](CN1[C@@H]2CC[C@H]1C[C@H](Cc1ccccc1)C2)c1ccccc1
Reply text: false

Inquiry: Field: below-cutoff. Rule: recorded Ki strictly less than 1 nM. Subject: O[C@H](CN1[C@@H]2CC[C@H]1C/C(=C\c1ccc(Cl)cc1)C2)c1ccccc1
Reply text: false

Inquiry: # TODO verify Ki < 1 nM strictly for this compound: O[C@H](CN1[C@@H]2CC[C@H]1C/C(=C\c1ccccc1)C2)c1ccccc1
Reply text: true

Inquiry: is_below(Ki, 1 nM) for O[C@@H](CN1[C@@H]2CC[C@H]1C[C@@H](Cc1ccc(F)cc1)C2)c1ccccc1 ?
Reply text: true

Inquiry: Could you please tell me whether Ki recorded for O[C@@H](CN1[C@@H]2CC[C@H]1C[C@@H](Cc1ccccc1)C2)c1ccccc1 is less than 1 nM?
Reply text: false

Inquiry: Strictly below 1 nM: is that where Ki of O[C@@H](CN1[C@@H]2CC[C@H]1C[C@@H](Cc1ccc(F)cc1)C2)c1ccc(F)cc1 sits?
Reply text: false

Inquiry: Strictly below 1 nM in Ki? O[C@H](CN1[C@@H]2CC[C@H]1C/C(=C/c1ccc(F)cc1)C2)c1ccccc1
Reply text: false

Inquiry: Would you kindly verify if Ki of O[C@@H](CN1[C@@H]2CC[C@H]1C/C(=C/c1ccc(Cl)cc1)C2)c1ccccc1 is strictly less than 1 nM?
Reply text: false

====

# Test system: Oocyte
# assayRemarks: Antagonist activity at GluN1a/GluN2B NMDA receptor (unknown origin) expressed in Xenopus oocytes assessed as inhibition of glycine and (S)-glutamate-induced ion channel activation at 1 uM at -70 mV holding potential by two-electrode voltage clamp method relative to control
# Type: cell-based
# conditionSet: Homo sapiens
outcomeMeasure: inhibition (%)
Please give a number only; it is taken to be in %.

Inquiry: Can you share its inhibition? I mean this compound: O[C@H](CN1[C@@H]2CC[C@H]1C[C@H](Cc1ccc(F)cc1)C2)c1ccccc1
Reply text: 3.1

Inquiry: // inhibition lookup, key: O[C@H](CN1[C@@H]2CC[C@H]1C/C(=C\c1ccc(F)cc1)C2)c1ccccc1
Reply text: 1.7

Inquiry: Dear colleague, I am looking for the recorded inhibition of the following compound: O[C@H](CN1[C@@H]2CC[C@H]1C[C@@H](Cc1ccc(F)cc1)C2)c1ccccc1
Reply text: 2.3
